Origin of values: BindingDB's records for doi:10.1111/cbdd.12732

# IC50 per entry for Acetylcholinesterase (Electrophorus electricus)
Give the quantity in nM, number only.

| Compound Structure | Meas Value |
| --- | --- |
| N=c1oc2ccc3ccc(=O)oc3c2cc1C(=O)NC1CCCCC1 | 169 |

Data point: Cc1cc(=O)oc2c1ccc1oc(=N)c(C(=O)NCc3ccc(C(C)(C)C)cc3)cc12 ; IC50 = 77

Data point: N=c1oc2ccc3ccc(=O)oc3c2cc1C(=O)NCc1cccc(Br)c1 ; IC50 = 13

Data point: N=c1oc2ccc3ccc(=O)oc3c2cc1C(=O)NC1CC1 ; IC50 = 799

Data point: CCNC(=O)c1cc2c(ccc3ccc(=O)oc32)oc1=N ; IC50 = 259

Data point: CNC(=O)c1cc2c(ccc3ccc(=O)oc32)oc1=N ; IC50 = 415

---

# IC50 per record follows
target: Acetylcholinesterase (Electrophorus electricus)
Give the quantity in nM, number only.

Entry N=c1oc2ccc3ccc(=O)oc3c2cc1C(=O)NC(c1ccccc1)c1ccccc1 : IC50 on Acetylcholinesterase (Electrophorus electricus) = 669

Entry N=c1oc2ccc3ccc(=O)oc3c2cc1C(=O)NCc1cccc(Cl)c1 : IC50 on Acetylcholinesterase (Electrophorus electricus) = 88

Entry N=c1oc2ccc3ccc(=O)oc3c2cc1C(=O)N1CCOCC1 : IC50 on Acetylcholinesterase (Electrophorus electricus) = 226

Entry N=c1oc2ccc3ccc(=O)oc3c2cc1C(=O)NCc1ccccc1Cl : IC50 on Acetylcholinesterase (Electrophorus electricus) = 30

Entry COc1ccccc1OCCNC(=O)c1cc2c(ccc3ccc(=O)oc32)oc1=N : IC50 on Acetylcholinesterase (Electrophorus electricus) = 440

Entry CC(NC(=O)c1cc2c(ccc3ccc(=O)oc32)oc1=N)c1ccccc1 (stereo unspecified) : IC50 on Acetylcholinesterase (Electrophorus electricus) = 462

---

target: Acetylcholinesterase (Electrophorus electricus, UniProt O42275)
Sequence (O42275 whole entry): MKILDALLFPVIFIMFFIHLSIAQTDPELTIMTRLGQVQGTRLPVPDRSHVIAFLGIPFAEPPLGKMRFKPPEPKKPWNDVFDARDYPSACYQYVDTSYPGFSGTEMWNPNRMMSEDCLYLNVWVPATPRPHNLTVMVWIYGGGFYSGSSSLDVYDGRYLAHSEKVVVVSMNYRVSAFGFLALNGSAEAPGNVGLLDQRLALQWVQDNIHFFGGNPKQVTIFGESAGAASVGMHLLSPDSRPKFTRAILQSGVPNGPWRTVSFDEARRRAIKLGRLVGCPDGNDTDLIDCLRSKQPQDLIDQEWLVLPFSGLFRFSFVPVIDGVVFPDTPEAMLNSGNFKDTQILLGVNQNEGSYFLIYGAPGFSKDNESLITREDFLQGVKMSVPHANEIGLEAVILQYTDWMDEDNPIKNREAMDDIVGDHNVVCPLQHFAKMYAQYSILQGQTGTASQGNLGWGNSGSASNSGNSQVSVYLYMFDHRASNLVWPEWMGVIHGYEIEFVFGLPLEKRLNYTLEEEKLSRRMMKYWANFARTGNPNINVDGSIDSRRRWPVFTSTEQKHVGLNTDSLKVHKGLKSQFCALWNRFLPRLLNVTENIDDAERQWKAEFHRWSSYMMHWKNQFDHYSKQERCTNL
Parameter: IC50 (nM)
Give the quantity in nM, number only.

| Compound | Uom | IC50 |
| --- | --- | --- |
| N=c1oc2ccc3ccc(=O)oc3c2cc1C(=O)NCc1ccccc1Br | nM | 27 |
| CCCCCCCCCCCCNC(=O)c1cc2c(ccc3ccc(=O)oc32)oc1=N | nM | 83 |
| N=c1oc2ccc3ccc(=O)oc3c2cc1C(=O)NCc1ccccc1 | nM | 497 |
| COc1ccc(C(C)NC(=O)c2cc3c(ccc4ccc(=O)oc43)oc2=N)cc1 (stereo not given) | nM | 390 |

With those in mind, consider the next compound.
Entry COc1ccc(CNC(=O)c2cc3c(ccc4ccc(=O)oc43)oc2=N)c(OC)c1 : IC50 on Acetylcholinesterase (Electrophorus electricus, UniProt O42275) = 300
